Kindly state Inhibition for each of the entries shown.
- System: Klebsiella pneumoniae
- assay-context: Concentration 32 ug.mL-1;; ASSAY_TEST Inhibition of Bacterial Growth; detection method Absorption (OD600); MEDIA CAMHB; plate type 384well; NBS; CORNING #3640; time 18 hr
- Description: Antibacterial activity against Klebsiella pneumoniae MDR ATCC 70063 (CO-ADD:GN_003); MIC in CAMBH media using NBS plates, by OD(600)
Results with a measured potency or affinity are listed apart.
Answers are plain numbers, in %.

smi	parameter-measured	reported-measurement
Cc1ccc(NC(=O)Cn2nc3c4cc(-c5ccc(C)c(C)c5)nn4ccn3c2=O)cc1C	Inhibition	4.54

Would you be so kind as to report Inhibition for each listed record?
1. COc1cccc(-n2ccn3c(SCC(=O)c4cc(C)c(C)cc4C)nnc3c2=O)c1
2. COc1ccccc1Cn1c(=O)c2sccc2n2c(=O)n(Cc3ccc(Br)cc3)nc12

Return:
[11.25, 3.07]

----------
- Tested on: Cryptococcus neoformans
- assay-context: Concentration 32 ug.mL-1; ASSAY_TEST Inhibition of Fungal Growth; detection method Resazurin; Absorption (OD600-OD570); plate type 384well; NBS; CORNING #3640
- Description: Antifungal activity against Cryptococcus neoformans H99 ATCC 208821 (CO-ADD:FG_002); MIC in YNB media using NBS plates, by Resazurin OD(600-570)
Potency and affinity values are given separately.
parameter-measured: Inhibition (%)
Answers are plain numbers, in %.

Example entries begin here.
smi	reported-measurement
Cc1ccc(Oc2nccn3c(=O)n(CC(=O)Nc4ccc(F)cc4F)nc23)cc1	-6.68
COc1ccc(-c2cc3c4nn(CC(=O)Nc5cccc(C)c5)c(=O)n4ccn3n2)cc1	-17.04
COc1ccc(NC(=O)Cn2nc3c(SC4CCCCC4)nccn3c2=O)cc1Cl	-22.74

Would you be so kind as to report Inhibition for each listed record?
1. CCOc1ccc(-n2ccn3c(SCC(=O)NCc4cccc(OC)c4OC)nnc3c2=O)cc1
2. O=c1n(Cc2cccc(C(F)(F)F)c2)nc2c(S(=O)(=O)N3CCCC3)cccn12
3. COc1ccc(Cl)cc1NC(=O)CSc1nnc2c(=O)n(-c3ccccc3)ccn12
4. Cc1ccc(-c2ccc3nn(Cc4cc(F)cc(F)c4)c(=O)n3n2)cc1C

Return:
[-8.08, -8.52, -20.14, -8.58]

Would you be so kind as to report Inhibition for each listed record?
1. Cc1cc(C)c(NC(=O)Cn2nc3c(N4CCN(c5ccccc5)CC4)nccn3c2=O)c(C)c1
2. CC(C)CCn1c(=O)c2sccc2n2c(=O)n(Cc3ccccc3Cl)nc12
3. Cc1cc(C)cc(N(Cc2c(F)cccc2Cl)S(=O)(=O)c2cccn3cnnc23)c1

Return:
-7.74
-23.98
-5.6

----------
Kindly state Inhibition for each of the entries shown.
- Test system: Klebsiella pneumoniae
- assay-context: Concentration 32 ug.mL-1;; ASSAY_TEST Inhibition of Bacterial Growth; detection method Absorption (OD600); MEDIA CAMHB; plate type 384well; NBS; CORNING #3640; time 18 hr
Measured potencies and affinities stand elsewhere.
Give bare numbers, in %.

compound	parameter-measured	uom	reported-measurement
COc1cc(-c2nnc3c(=O)n(Cc4ccc(Cl)cc4)ccn23)cc(OC)c1OC	Inhibition	%	11.02
COc1ccc(-c2cc3c4nnc(SCC(=O)NCc5ccccc5)n4ccn3n2)cc1	Inhibition	%	-10.83
COc1ccc(NC(=O)Cn2nc3c(N4CC(C)CC(C)C4)nccn3c2=O)c(OC)c1 (stereo not given)	Inhibition	%	17.76
CC(=O)c1ccc(NC(=O)Cn2nc3c4cc(-c5ccc(Cl)cc5)nn4ccn3c2=O)cc1	Inhibition	%	16.61
COc1cc(NC(=O)Cn2nc3c4c5c(sc4ncn3c2=O)CCCC5)cc(OC)c1OC	Inhibition	%	9

Would you be so kind as to report Inhibition for each listed record?
1. CC(C)(C)OC(=O)N1CCC(NC(=O)CCc2nnc3ccc(-c4ccccc4)nn23)CC1
2. Cc1cc(F)ccc1NC(=O)Cn1nc2c(SCc3ccc(Cl)cc3)nccn2c1=O

Return:
[12.09, 8.05]

Would you be so kind as to report Inhibition for each listed record?
1. COc1cccc(-n2ccn3c(SCC#N)nnc3c2=O)c1
2. Cc1ccc(-n2ccn3c(=O)n(Cc4ccccc4)nc3c2=O)cc1C
3. Cc1cccc(N(C)C(=O)Cn2nc3cc(C)nc(Nc4ccc(F)c(C)c4)n3c2=O)c1

Return:
[2.74, -0.96, 4.58]

----------
- Tested on: Cryptococcus neoformans
- assay-context: Concentration 32 ug.mL-1; ASSAY_TEST Inhibition of Fungal Growth; detection method Resazurin; Absorption (OD600-OD570); plate type 384well; NBS; CORNING #3640
Potency and affinity values are given separately.
parameter-measured: Inhibition (%)
Give bare numbers, in %.

Example entries begin here.
compound	uom	Inhibition
COC(=O)c1ccc(NC(=O)Cn2nc3c4sc(N5CCCC5)nc4ncn3c2=O)cc1	%	-4.89
COc1ccc(-c2cc3c4nn(CC(=O)Nc5cc(C)cc(C)c5)c(=O)n4ccn3n2)cc1	%	-4.71
CCOc1ccc(C(=O)CSc2nnc3c(=O)n(-c4ccc(Br)cc4)ccn23)cc1	%	-11.96
Cc1cc(C)cc(N(Cc2ccccc2F)S(=O)(=O)c2cccn3c(C)nnc23)c1	%	-4.5
Cc1ccccc1CSc1nnc2c(=O)n(-c3ccc(Br)cc3)ccn12	%	-9.13
Cc1oc(-c2ccc(OC(C)C)cc2)nc1CSc1nc2ccccc2n2c(C(C)C)nnc12	%	-18.35
CC(C)c1nnc2c(SCC(=O)Nc3ccc(F)cc3F)nc3ccccc3n12	%	-26.87
CCC(Sc1nnc2c(=O)n(-c3ccc(C)c(C)c3)ccn12)C(=O)Nc1cc(OC)ccc1OC (stereo not given)	%	-6.72
O=C(Cn1nc2c(N3CCOCC3)nccn2c1=O)NCc1cccc(C(F)(F)F)c1	%	-4.87
COC(=O)c1ccc(NC(=O)Cn2nc3ccc(SCc4ccc(Cl)cc4)nn3c2=O)cc1	%	-5.53

Would you be so kind as to report Inhibition for each listed record?
1. O=C(Cn1nc2ccc(-c3ccccc3)nn2c1=O)Nc1ccc(Cl)c(C(F)(F)F)c1
2. COc1cccc(-n2ccn3c(SCc4cccc(C(F)(F)F)c4)nnc3c2=O)c1

Return:
-8.29
-6.54

----------
Kindly state Inhibition for each of the entries shown.
- System: Cryptococcus neoformans
- assay-context: Concentration 32 ug.mL-1; ASSAY_TEST Inhibition of Fungal Growth; detection method Resazurin; Absorption (OD600-OD570); plate type 384well; NBS; CORNING #3640
Measured potencies and affinities stand elsewhere.
One number for each entry, in %.

Example entries begin here.
smi	Inhibition, %
Cc1ccc(Sc2nccn3c(=O)n(CC(=O)Nc4ccccc4C)nc23)c(C)c1	-25.74
CCc1ccccc1Sc1nccn2c(=O)n(CC(=O)Nc3ccc(C)cc3C)nc12	-14.18
O=c1c2sccc2n2c(=O)n(Cc3ccccc3Cl)nc2n1CCc1ccccc1	-28.45
Cc1ccc(Cl)cc1NC(=O)Cn1nc2c3c4c(sc3ncn2c1=O)CCCCC4	-31.5

Now, please, on to the next compound.
Enquiry: # get_value(readout='Inhibition', item= "CCOC(=O)c1ccc(NC(=O)Cn2nc3c(Oc4ccccc4)nccn3c2=O)cc1" )
Return: -7.75

----------
Kindly state Inhibition for each of the entries shown.
- Test system: Candida albicans
- assay-context: Concentration 32 ug.mL-1; ASSAY_TEST Inhibition of Fungal Growth; detection method Absorption (OD530)
- Description: Antifungal activity against Candida albicans ATCC 90028 (CO-ADD:FG_001); MIC in YNB media using NBS plates, by OD630
Measured potencies and affinities stand elsewhere.
One number for each entry, in %.

Example entries begin here.
compound	parameter-measured	reported-measurement
COc1cccc(-n2ccn3c(SCC(=O)c4cc(C)ccc4C)nnc3c2=O)c1	Inhibition	5.19
Cc1cccc(C)c1NC(=O)Cn1c(=O)c2nnc(C(C)C)n2c2ccccc21	Inhibition	4.52
CCCCc1ccc(NC(=O)Cn2nc3c(N4CC(C)CC(C)C4)nccn3c2=O)cc1 (stereo not given)	Inhibition	4.16
CCc1nnc2ccc(S(=O)(=O)N(Cc3cccc(F)c3)c3ccc(OC)cc3)cn12	Inhibition	1.92
COc1ccccc1CNC(=O)Cn1nc2c(SCc3ccc(Cl)cc3)nccn2c1=O	Inhibition	2.3
CCCCn1c(=O)c2sccc2n2c(CCC(=O)Nc3ccc(OC(F)(F)F)cc3)nnc12	Inhibition	-0.1
COc1ccccc1NC(=O)Cn1nc2c(Sc3ccccc3)nccn2c1=O	Inhibition	1.31
COc1cccc(-n2ccn3c(SCC(=O)c4c[nH]c5ccccc45)nnc3c2=O)c1	Inhibition	4.57
COC(=O)c1ccccc1NC(=O)Cn1nc2c(SC3CCCCC3)nccn2c1=O	Inhibition	1.97

Now, please, on to the next compound.
Enquiry: # get_value(readout='Inhibition', item= "CCOC(=O)c1ccccc1NC(=O)Cn1nc2c(Oc3ccc(C)cc3)nccn2c1=O" )
Return: 4.6

----------
- Tested on: Candida albicans
- assay-context: Concentration 32 ug.mL-1; ASSAY_TEST Inhibition of Fungal Growth; detection method Absorption (OD530)
Measured potencies and affinities stand elsewhere.
Sorting guide: entries reporting Inhibition beneath 4% go in the Satisfied pile, the rest go in the Not satisfied pile.

Recorded results for 3 compounds are shown here.
smi	target-entity	assigned-label
Cc1cc(Br)ccc1NC(=O)Cn1nc2c(Sc3cccc(F)c3)nccn2c1=O	Candida albicans	Not satisfied
CCc1nnc2c(S(=O)(=O)N(Cc3cc(F)cc(F)c3)c3ccc(F)cc3)cccn12	Candida albicans	Not satisfied
Cc1ccc(-c2ccc3nn(CC(=O)Nc4ccc(C#N)cc4)c(=O)n3n2)cc1C	Candida albicans	Satisfied

Enquiry: Take the compound "COc1ccc(OC)c(NC(=O)Cn2nc3ccc(SCc4ccc(Cl)cc4)nn3c2=O)c1" and say whether its Inhibition is less than 4%.
Return: Not satisfied

Enquiry: Take the compound "COc1ccc(Cl)cc1NC(=O)CSc1nnc2c(=O)n(-c3ccc(C)c(C)c3)ccn12" and say whether its Inhibition is less than 4%.
Return: Satisfied

FYI, the data here is from ChEMBL document CHEMBL4513146.
